System: prolactin
Assay: Serum prolactin levels in rats, reserpinized and non-reserpinized
Format: in vivo, rats of the Sprague-Dawley strain
Conditions: rats not pretreated with reserpine, run 2; compound 1 mg./kg.
Description: Adult male rats of the Sprague-Dawley strain weighing about 200 g. were housed in an air-conditioned room with controlled lighting (lights on 6 a.m. - 8 p.m.) and fed lab chow and water ad libitum. […] In addition, prolactin levels were determined in two runs in which the rats were not pretreated with reserpin. […]
# label = 1 (yes) if Prolactin Levels Non-Reserpinized 2 >= 20 else 0 (no)

Compound: CCCN1CCc2cccc3c2C1Cc1c[nH]nc1-3 (centres unmarked)
Assigned class: 0 (no)
--
Compound: CCCN1CCc2cc(O)c(O)c3c2C1Cc1c[nH]nc1-3 (racemic)
Assigned class: 1 (yes)
--
Compound: CN1CCc2cc(O)c(O)c3c2C1Cc1c[nH]nc1-3 (centres unmarked)
Assigned class: 1 (yes)
--
Compound: COc1cc2c3c(c1OC)-c1n[nH]cc1CC3N(C)CC2 (centres unmarked)
Assigned class: 0 (no)
--
Compound: CN1CCc2cccc3c2C1Cc1c[nH]nc1-3 (centres unmarked)
Assigned class: 0 (no)
